# Experiment: Toxicokinetics in pregnant female rabbits
# Assay type: in vivo, rabbit
# Condition Notes: female, New Zealand White Hra:(NZW)SPF, rabbit, plasma, po, 20 mg/kg/day, pregnant rabbits, 20 mg/kg/d oral, Gestation Day 7
Attribute Measured: AUC (ng·h/mL)
Answers are plain numbers, in ng·h/mL.

Exercise: What value of AUC has been reported for the following compound? O[C@H]1CC[C@H](Nc2ncc3nc(Nc4c(F)cc(F)cc4F)n([C@H]4CCOC4)c3n2)CC1
Solution: 79100

====

# Experiment: Pharmacokinetics (plasma and urine) of ascending multiple oral doses in healthy volunteers
# Assay type: in vivo, human
# Condition Notes: both sexes, human, plasma, oral, 25 mg, 25 mg QD, Day 14, plasma, healthy subjects (N = 8); geometric mean; read-out: Cmax
# Protocol: Subjects: Forty healthy male and female subjects between the ages of 20 and 50 were enrolled in the study. All subjects were in good health as determined by a medical history, physical examination, 12-lead ECG, serum biochemistry, hematology, urinalysis and virology. […] Assessments: Safety and tolerability were assessed by adverse event (AE) monitoring, clinical laboratory testing, vital sign measurement, 12-lead ECG measurement, concomitant medication assessment, and physical examination. […]
Attribute Measured: Cmax (ng/mL)
Numbers only, in ng/mL.

Exercise: What value of Cmax has been reported for the following compound? O[C@H]1CC[C@H](Nc2ncc3nc(Nc4c(F)cc(F)cc4F)n([C@H]4CCOC4)c3n2)CC1 [Compound I]
Solution: 328

====

# Experiment: Toxicokinetics in pregnant female rats
# Type: in vivo, rat
# Condition Notes: female, CD [Crl:CD(SD)], rat, plasma, oral, 50 mg/kg/day; rats, 50 mg/kg/d, 2 hours after dosing on Gestation Day 17; read-out: Dam plasma concentration
Attribute Measured: concentration at 2 h (ng/mL)
One number for each entry, in ng/mL.

Exercise: What value of concentration at 2 h has been reported for the following molecule? O[C@H]1CC[C@H](Nc2ncc3nc(Nc4c(F)cc(F)cc4F)n([C@H]4CCOC4)c3n2)CC1
Solution: 3410

====

# Experiment: Pharmacokinetics (plasma and urine) of ascending multiple oral doses in healthy volunteers
# Format: in vivo, human
# Condition Notes: both sexes, human, urine, oral, 200 mg, 200 mg QD, Day 14, urine (n = 8); geometric mean; read-out: CLR (renal clearance of drug)
Attribute Measured: CL renal at 14 days (mL/min)
One number for each entry, in mL/min.

Exercise: What value of CL renal at 14 days has been reported for the following molecule? O[C@H]1CC[C@H](Nc2ncc3nc(Nc4c(F)cc(F)cc4F)n([C@H]4CCOC4)c3n2)CC1 [Compound I]
Solution: 8.5

====

# Experiment: Pharmacokinetics (plasma and urine) of ascending multiple oral doses in healthy volunteers
# Type: in vivo, human
# Condition Notes: both sexes, human, oral; 100 mg QD, Day 14, plasma (N = 8); geometric mean; read-out: t1/2 (converted)
Attribute Measured: half-life (h)
Answers are plain numbers, in h.

Exercise: What value of half-life has been reported for the following molecule? O[C@H]1CC[C@H](Nc2ncc3nc(Nc4c(F)cc(F)cc4F)n([C@H]4CCOC4)c3n2)CC1 [Compound I]
Solution: 30

====

# Experiment: clinical
# Condition Notes: both sexes, human, in vivo, po, 100 mg, AUC0-∞, Geometric Mean
# Excerpt: Methods: This was an open-label study conducted at a single study center in conformance with good clinical practice (GCP). Thirty-six eligible healthy male and female subjects were enrolled and distributed into 3 groups as follows: Group 1—A total of 12 females between 18 to 55 years of age, inclusive (±5 years age-matched and ±10% weight-matched to subjects in Group 2). […]
Attribute Measured: AUC(0-inf)

Exercise: What value of AUC(0-inf) has been reported for the following molecule? O[C@H]1CC[C@H](Nc2ncc3nc(Nc4c(F)cc(F)cc4F)n([C@H]4CCOC4)c3n2)CC1
Solution: 14400 ng·h/mL

====

# Experiment: Pharmacokinetics (plasma and urine) of ascending multiple oral doses in healthy volunteers
# Format: in vivo, human
# Condition Notes: both sexes, human, plasma, oral, 25 mg, 25 mg QD, Day 14, plasma, healthy subjects (N = 8); median; read-out: tmax
Attribute Measured: Tmax (h)
One number for each entry, in h.

Exercise: What value of Tmax has been reported for the following molecule? O[C@H]1CC[C@H](Nc2ncc3nc(Nc4c(F)cc(F)cc4F)n([C@H]4CCOC4)c3n2)CC1 [Compound I]
Solution: 2

====

# Experiment: Toxicokinetics in pregnant female rats
# Assay type: in vivo, rat
# Condition Notes: female, Crl:CD(SD), rat, fetal plasma / maternal plasma, oral, 100 mg/kg/day; rats, 100 mg/kg/d, Gestation Day 17; calculated from individual ratios; read-out: Fetal:Maternal Plasma Ratio
# Procedure: Compound I was readily absorbed in pregnant rats following daily oral administration of Compound I for 11 days (GD 6-16). Exposures for Compound I increased in an approximately dose-proportional manner from 25 to 100 mg/kg/day.
Attribute Measured: Kp
Give bare numbers.

Exercise: What value of Kp has been reported for the following compound? O[C@H]1CC[C@H](Nc2ncc3nc(Nc4c(F)cc(F)cc4F)n([C@H]4CCOC4)c3n2)CC1
Solution: 0.61

====

# Experiment: Pharmacokinetics (plasma and urine) of ascending multiple oral doses in healthy volunteers
# Assay type: in vivo, human
# Condition Notes: both sexes, human, urine, oral, 25 mg, 25 mg QD, Day 1, urine (n = 8); geometric mean; read-out: CLR (renal clearance of drug)
# Protocol: Subjects: Forty healthy male and female subjects between the ages of 20 and 50 were enrolled in the study. All subjects were in good health as determined by a medical history, physical examination, 12-lead ECG, serum biochemistry, hematology, urinalysis and virology. […] Assessments: Safety and tolerability were assessed by adverse event (AE) monitoring, clinical laboratory testing, vital sign measurement, 12-lead ECG measurement, concomitant medication assessment, and physical examination. […]
Attribute Measured: CL renal (mL/min)
Answers are plain numbers, in mL/min.

Exercise: What value of CL renal has been reported for the following molecule? O[C@H]1CC[C@H](Nc2ncc3nc(Nc4c(F)cc(F)cc4F)n([C@H]4CCOC4)c3n2)CC1
Solution: 9.5

====

# Experiment: Pharmacokinetics (plasma and urine) of ascending multiple oral doses in healthy volunteers
# Assay type: in vivo, human
# Condition Notes: both sexes, human, plasma, oral, 200 mg, 200 mg QD, Day 1, plasma, τ = 24 hours (N = 8); geometric mean; read-out: AUC(0-τ)
Attribute Measured: AUC (ng·h/mL)
Numbers only, in ng·h/mL.

Exercise: What value of AUC has been reported for the following molecule? O[C@H]1CC[C@H](Nc2ncc3nc(Nc4c(F)cc(F)cc4F)n([C@H]4CCOC4)c3n2)CC1 [Compound I]
Solution: 15100

====

# Experiment: Pharmacokinetics (plasma and urine) of ascending multiple oral doses in healthy volunteers
# Format: in vivo, human
# Condition Notes: both sexes, human, plasma, oral, 200 mg, 200 mg QD, Day 14, plasma, τ = 24 hours (N = 8); geometric mean; read-out: AUC(0-τ)
Attribute Measured: AUC (ng·h/mL)
Answers are plain numbers, in ng·h/mL.

Exercise: What value of AUC has been reported for the following compound? O[C@H]1CC[C@H](Nc2ncc3nc(Nc4c(F)cc(F)cc4F)n([C@H]4CCOC4)c3n2)CC1
Solution: 22800

====

# Experiment: Pharmacokinetics of a single ascending oral dose in healthy male subjects
# Format: in vivo, human
# Condition Notes: human, in vivo; single oral dose 100 mg, unformulated in capsule, healthy male subjects; geometric mean; read-out: Vz/F
Attribute Measured: Vd/F (L)
Answers are plain numbers, in L.

Exercise: What value of Vd/F has been reported for the following compound? O[C@H]1CC[C@H](Nc2ncc3nc(Nc4c(F)cc(F)cc4F)n([C@H]4CCOC4)c3n2)CC1
Solution: 293

====

# Experiment: clinical
# Condition Notes: male, human, in vivo, 100 mg, Cmax
Attribute Measured: Cmax (ng/mL)
Numbers only, in ng/mL.

Exercise: What value of Cmax has been reported for the following compound? O[C@H]1CC[C@H](Nc2ncc3nc(Nc4c(F)cc(F)cc4F)n([C@H]4CCOC4)c3n2)CC1 [Compound I]
Solution: 658

====

# Experiment: Toxicokinetics in pregnant female rabbits
# Format: in vivo, rabbit
# Condition Notes: female, New Zealand White Hra:(NZW)SPF, rabbit, plasma, po, 20 mg/kg/day, pregnant rabbits, 20 mg/kg/d oral, Gestation Day 18
Attribute Measured: Cmax
Number plus unit, in that order.

Exercise: What value of Cmax has been reported for the following compound? O[C@H]1CC[C@H](Nc2ncc3nc(Nc4c(F)cc(F)cc4F)n([C@H]4CCOC4)c3n2)CC1 [Compound I]
Solution: 13200 ng/mL

====

# Experiment: clinical
# Condition Notes: both sexes, human, in vivo, po, 100 mg, Tmax
Attribute Measured: Tmax (h)
Give bare numbers, in h.

Exercise: What value of Tmax has been reported for the following compound? O[C@H]1CC[C@H](Nc2ncc3nc(Nc4c(F)cc(F)cc4F)n([C@H]4CCOC4)c3n2)CC1
Solution: 1.97
